Target entity: Nucleoside triphosphate diphosphohydrolase 3 (Rattus norvegicus)
Sequence (whole entry): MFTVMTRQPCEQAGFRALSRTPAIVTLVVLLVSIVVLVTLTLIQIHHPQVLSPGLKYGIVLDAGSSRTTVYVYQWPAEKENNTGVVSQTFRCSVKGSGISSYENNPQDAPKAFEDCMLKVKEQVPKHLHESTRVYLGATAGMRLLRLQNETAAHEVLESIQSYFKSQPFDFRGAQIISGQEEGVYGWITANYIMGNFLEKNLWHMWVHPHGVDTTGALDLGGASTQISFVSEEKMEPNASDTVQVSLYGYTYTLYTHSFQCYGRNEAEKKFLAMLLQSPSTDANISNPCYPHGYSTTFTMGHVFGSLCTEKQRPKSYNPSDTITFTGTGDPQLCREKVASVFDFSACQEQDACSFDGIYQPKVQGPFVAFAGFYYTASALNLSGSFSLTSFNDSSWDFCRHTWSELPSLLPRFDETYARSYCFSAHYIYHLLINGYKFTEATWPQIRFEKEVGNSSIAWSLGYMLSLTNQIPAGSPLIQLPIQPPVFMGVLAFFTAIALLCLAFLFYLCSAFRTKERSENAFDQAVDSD
Method notes: Inhibition of rat NTPDase3 expressed in CHO cells using ATP as substrate preincubated for 10 mins followed by substrate addition measured after 10 mins by malachite green reagent-based assay
Assay type: cell-based
Parameters: concentration or dose not given beside the values
Parameter: inhibition (%)
Please respond with the number in % and leave the unit unwritten.

// known answers, use as guide
> print(dat)
              smiles.representation                             target.entity   parameter  test.result
1   Cc1ccc(C(=O)n2nc(C)c(Cl)c2C)cc1  Nucleoside triphosphate diphosphohydrolase 3 (Rattus norvegicus)  inhibition         47.6
2      Cc1nn(C(=O)c2ccncc2)c(C)c1Cl  Nucleoside triphosphate diphosphohydrolase 3 (Rattus norvegicus)  inhibition         42.9
3  Cc1nn(C(=O)c2ccc(Cl)cc2)c(C)c1Cl  Nucleoside triphosphate diphosphohydrolase 3 (Rattus norvegicus)  inhibition         37.8
4       Cc1cccc(C(=O)n2nc(C)cc2C)c1  Nucleoside triphosphate diphosphohydrolase 3 (Rattus norvegicus)  inhibition         36.3
5   Cc1cccc(C(=O)n2nc(C)c(Cl)c2C)c1  Nucleoside triphosphate diphosphohydrolase 3 (Rattus norvegicus)  inhibition         46.4

# input State the recorded inhibition for this entry: Cc1cc(C)n(C(=O)c2ccc(Cl)cc2)n1
# output 40.9

# input State the recorded inhibition for this entry: Cc1cc(C)n(C(=O)c2ccccc2C)n1
# output 38.5

# input State the recorded inhibition for this entry: Cc1n[nH]c(C)c1Oc1ccc2ccccc2c1
# output 40.2

# input State the recorded inhibition for this entry: Cc1cc(C)n(C(=O)c2ccc(N)cc2)n1
# output 40.6

# input State the recorded inhibition for this entry: Cc1nn(C(=O)/C=C/c2ccccc2)c(C)c1Cl
# output 42.9
